Known pIC50 of a selection of molecules
# measurement_target: recombinant full-length USP7 (Homo sapiens, UniProt Q93009)
# Construct: A 25 μl reaction volume containing recombinant full-length USP7 (62 pM)
# Sequence (Q93009 whole entry): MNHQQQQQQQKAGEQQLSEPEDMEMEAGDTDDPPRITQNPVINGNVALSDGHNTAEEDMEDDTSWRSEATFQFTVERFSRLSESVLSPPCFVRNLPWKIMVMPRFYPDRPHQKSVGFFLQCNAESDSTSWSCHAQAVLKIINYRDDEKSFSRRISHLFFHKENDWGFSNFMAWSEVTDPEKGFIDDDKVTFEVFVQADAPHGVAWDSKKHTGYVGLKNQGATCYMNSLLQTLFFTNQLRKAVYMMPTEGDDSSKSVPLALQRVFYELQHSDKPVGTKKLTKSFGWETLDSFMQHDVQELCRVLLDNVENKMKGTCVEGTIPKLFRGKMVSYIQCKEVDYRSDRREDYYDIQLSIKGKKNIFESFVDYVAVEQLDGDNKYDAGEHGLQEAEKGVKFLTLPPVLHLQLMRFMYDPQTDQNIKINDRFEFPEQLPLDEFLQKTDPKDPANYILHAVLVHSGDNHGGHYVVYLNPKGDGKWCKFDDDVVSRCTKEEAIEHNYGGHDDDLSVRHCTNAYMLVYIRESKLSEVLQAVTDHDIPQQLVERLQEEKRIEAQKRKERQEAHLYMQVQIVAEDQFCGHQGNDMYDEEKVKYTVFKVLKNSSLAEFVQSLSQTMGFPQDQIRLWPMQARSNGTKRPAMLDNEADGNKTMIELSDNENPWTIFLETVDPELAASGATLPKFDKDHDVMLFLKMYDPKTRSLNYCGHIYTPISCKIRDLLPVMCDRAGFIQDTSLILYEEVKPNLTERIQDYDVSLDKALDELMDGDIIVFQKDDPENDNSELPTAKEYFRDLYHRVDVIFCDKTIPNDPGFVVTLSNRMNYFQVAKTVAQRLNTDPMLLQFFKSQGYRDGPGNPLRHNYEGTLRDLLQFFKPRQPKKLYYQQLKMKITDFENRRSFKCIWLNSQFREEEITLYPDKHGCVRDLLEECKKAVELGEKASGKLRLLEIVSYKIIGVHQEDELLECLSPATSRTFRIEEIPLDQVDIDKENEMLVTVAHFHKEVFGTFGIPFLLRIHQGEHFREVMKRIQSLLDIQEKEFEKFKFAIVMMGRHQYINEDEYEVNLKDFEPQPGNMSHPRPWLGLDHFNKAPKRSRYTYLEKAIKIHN
# experiment_notes: USP7-mediated ubiquitin-rhodamine cleavage assay
# Assay type: biochemical
# test_parameters: recombinant full-length USP7 62 pM; ubiquitin-rhodamine 100 nM; 30-minute incubation with compound, 1 hour reaction at room temperature; read-out: Potency: USP7 IC50
# Protocol: In the case of the USP7 deubiquitylating enzyme, the IC50 of an USP7 inhibiting compound is the concentration of the compound that inhibits 50% of the activity observed in a USP7-mediated ubiquitin-rhodamine cleavage assay. For the USP7 inhibitors disclosed herein, their potency was measured using the following test method. […]
pIC50: −log10 of the molar value. Where a name gives a salt, the structure may show the parent alone.

{"columns": ["molecule", "measurement_target", "pIC50"],
 "data": [
  ["Cc1cc(Cl)cc(-c2ccnc3cc(CN4C(=O)CC(C)(C)CC4=O)sc23)c1OC1CCNCC1", "recombinant full-length USP7 (Homo sapiens, UniProt Q93009)", "> 6.00"]
]}

Consider the molecule shown here: Cc1cc(Cl)cc(-c2ncnc3cc(CN4C(=O)C5C(C4=O)C5(C)C)sc23)c1O[C@@H]1C[C@H]2CN[C@@H]1C2 (stereo partly shown) [Example 354, dihydrochloride] What is its recorded pIC50? > 6.00

What would you report for Cc1cc(Cl)cc(-c2ccnc3cc(CN4C(=O)CCC4=O)sc23)c1OC1CCNC1(C)C (stereo not shown) ? > 6.00

What would you report for Cc1cc(Cl)cc(-c2ccnc3cc(CN4C(=O)CCC4=O)sc23)c1O[C@@H]1CCN(C)C[C@@H]1C ? > 6.00

What would you report for Cc1cc([N+](=O)[O-])cc(-c2ccnc3cc(Cn4c(=O)ccn(CC(F)(F)F)c4=O)sc23)c1OCc1cn[nH]c1 ? > 6.00

What would you report for Cc1cc(Cl)cc(-c2ncnc3cc(CN4C(=O)COC4=O)sc23)c1O[C@@H]1CNC[C@@H]1F ? > 6.00

What would you report for CCC(O)c1cc2nccc(-c3cc(Cl)cc(C)c3OCC3CNC3)c2s1 (stereo not shown) ? 5.00 to 6.00

What would you report for Cc1cc(Cl)cc(-c2ncnc3cc(CN4C(=O)CSC4=O)sc23)c1O[C@@H]1CNC[C@@H]1F ? > 6.00

What would you report for Cc1cc(Cl)cc(-c2ccnc3cc(CN4C(=O)CCC4=O)sc23)c1O[C@@H]1CNC[C@@H]1C ? > 6.00

What would you report for Cc1cc(Cl)cc(-c2ccnc3cc(CO)sc23)c1OC[C@H]1CCN1 ? 4.52 to 5.00
